# System: AMP-activated protein kinase (AMPK)
# Test details: ADP Quest assay for AMPK activators
# Format: biochemical
# Set-up: key: fold AMPK activation with vs without activator at 30 µM
# Applied conditions: fold of AMPK activation to phosphorylate SAMS peptide without and with an activator at the concentration of 30 µM
Parameter measured: E30

> print(dat)
                                   compound                      measured.target  parameter.measured  measurement
1  CC1(C)Cc2cc(C(=O)O)ccc2NC1c1ccccc1NS(=O)(=O)c1ccccc1F (centres unmarked)  AMP-activated protein kinase (AMPK)                 E30         2.57

(1) Cc1ccccc1N1CCN(c2cccc(C3Nc4ccc(C(=O)NS(C)(=O)=O)cc4CC3(C)C)c2)CC1 (centres unmarked)
(2) CC1(C)Cc2c(ccc(F)c2C(=O)NS(=O)(=O)C2CC2)NC1c1cccc(N2CCOCC2)c1 (centres unmarked)
(3) CC(=O)N1CCN(c2cccc(C3Nc4c(cc(Cl)cc4C(=O)O)CC3(C)C)c2)CC1 (centres unmarked)
Exercise: List by increasing E30. Reply with the item labels sorted in the order that was asked for.
Key: 1, 2, 3

// data source = patent US8586747B2
